SUBJECT OF TEST: Focal adhesion kinase 1 (Homo sapiens) (UniProt Q05397)
Sequence (Q05397 whole entry, looked up): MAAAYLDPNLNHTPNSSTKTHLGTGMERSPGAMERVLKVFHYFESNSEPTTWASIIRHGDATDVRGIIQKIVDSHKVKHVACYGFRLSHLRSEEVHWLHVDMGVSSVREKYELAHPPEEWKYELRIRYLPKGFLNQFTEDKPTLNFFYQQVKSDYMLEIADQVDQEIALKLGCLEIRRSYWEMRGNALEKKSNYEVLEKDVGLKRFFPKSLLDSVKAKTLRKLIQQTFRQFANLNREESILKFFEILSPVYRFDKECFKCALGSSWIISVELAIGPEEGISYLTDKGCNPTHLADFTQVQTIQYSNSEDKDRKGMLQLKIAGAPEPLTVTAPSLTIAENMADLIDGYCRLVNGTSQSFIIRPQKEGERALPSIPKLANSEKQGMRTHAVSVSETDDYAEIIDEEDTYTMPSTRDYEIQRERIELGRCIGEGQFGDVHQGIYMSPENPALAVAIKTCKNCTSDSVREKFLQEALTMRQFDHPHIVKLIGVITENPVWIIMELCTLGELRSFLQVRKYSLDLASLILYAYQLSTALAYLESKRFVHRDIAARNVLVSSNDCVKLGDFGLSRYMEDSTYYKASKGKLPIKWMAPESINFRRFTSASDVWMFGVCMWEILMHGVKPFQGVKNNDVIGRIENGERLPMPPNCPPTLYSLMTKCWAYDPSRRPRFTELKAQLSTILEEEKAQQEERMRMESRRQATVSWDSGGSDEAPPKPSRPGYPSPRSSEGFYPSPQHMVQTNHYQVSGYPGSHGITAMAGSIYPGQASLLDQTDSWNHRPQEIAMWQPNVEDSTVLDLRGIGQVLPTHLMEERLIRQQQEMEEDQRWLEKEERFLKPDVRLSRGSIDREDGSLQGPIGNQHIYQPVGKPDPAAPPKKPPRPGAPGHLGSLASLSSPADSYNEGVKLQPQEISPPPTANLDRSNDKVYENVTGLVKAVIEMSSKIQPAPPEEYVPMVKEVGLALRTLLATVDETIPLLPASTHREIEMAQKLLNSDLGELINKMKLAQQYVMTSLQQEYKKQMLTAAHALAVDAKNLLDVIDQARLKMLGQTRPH
TEST DETAILS: PTK2 protein binding on printed compound slides – biochemical, small-molecule microarray, 635/667 nm fluorescence, BSA, DTT, primary screen (AID 1130);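 further: composite of spot emission at 667 nm and signal to noise over triplicate slides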
COND: 635 nm fluorescence, higher = more signal
Could you label it Y if measured composite z-score is 0.1 or higher, and N otherwise?

# LINE NOTATION, CLASSIFICATION
data = [
    ("COCCCNC(=O)[C@@]1(Cc2ccccc2CN=[N+]=[N-])N=C(c2ccc(OCCCO)cc2)O[C@H]1c1ccccc1CN=[N+]=[N-]", "Y"),
    ("O=C1O[C@@H](c2ccccc2)[C@@H](c2ccccc2)N2[C@@H](c3ccccc3OCCO)[C@]3(C(=O)Nc4ccccc43)[C@@H](C(=O)O)[C@H]12", "Y"),
    ("COCC(=C=CC[C@H](O)c1cccc(OCCO)c1)C[C@H](O)c1cc(Cl)cc(Cl)c1O", "N"),
    ("COC(=O)[C@@]1(Cc2ccc(F)cc2)[C@H]2c3cc(C(=O)N(C)C)n(Cc4ccc(C)o4)c3C[C@H]2CN1C(=O)c1ccccc1", "N"),
    ("NCCCCCNC(=O)[C@H]1C[C@H]2C(=O)N3CCC[C@H]3C(=O)N2[C@H]1c1ccc(O)cc1", "Y"),
]

Below: the item to evaluate.
// inclusive: composite z-score at least 0.1? input: C=CCOC(=O)[C@H]1[C@@H]2C(=O)O[C@@H](c3ccccc3)[C@@H](c3ccccc3)N2[C@@H](c2ccc(OCCOC(=O)[C@@H]3C[C@@H]4C(=O)N5CCC[C@H]5C(=O)N4[C@@H]3c3cccc(OCCO)c3)cc2)[C@]12C(=O)Nc1ccc(I)cc12
Y

----------
TEST DETAILS: optical density change of DRC41 E. coli – strain DRC41, OD650, 24 h, E. coli filamentation project, primary screen (AID 1093);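 further: MC1000 strain lacking acrAB efflux and sulA so SOS filamentation is blocked; test concentration not given here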
COND: E. coli DRC41 growth, higher = more signal, called active from +8 up or from −8 down
Calls of active or inactive are those of the source.
OBSERVABLE: z-score

Past entries and their recorded results:
# COMPOUND, OBSERVABLE, VALUE REPORTED
records = [
    ("COc1ccc([Si](C)(C)[C@@H]2[C@@H](CCn3cc([C@H](O)c4ccccc4)nn3)O[C@]3(C(=O)N(Cc4cccc(N5CCC5=O)c4)c4ccccc43)[C@H]2C)cc1", "z-score", "-0.546 (inactive)"),
    ("COC(=O)[C@@]1(Cc2ccc(OC)cc2)[C@H]2c3cc(C(=O)N4CCCC4)n(CCSCCO)c3C[C@H]2CN1C(=O)c1ccccc1", "z-score", "-0.647 (inactive)"),
    ("CC1CC/C=C\\[C@H]2OC34C=CCN(c5ccc6ccccc6c5)C(=O)[C@H]3N(CCO)C(=O)[C@@H]4C2C(=O)O1 (stereo partly specified)", "z-score", "0.764 (inactive)"),
]

Assign z-score to the following record: C=C(CCCC)/C(=C/C[C@@H](OC(C)=O)c1cccc(OCCO)c1)c1cnc2ccccc2c1
1.24 (inactive)

----------
TEST DETAILS: viability profiling in RPMI8226 myeloma cells – cell-based, resazurin fluorescence, basal, 24 h, PK04 Diversity Set, profiling panel (AID 1180);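 further: RPMI8826 multiple myeloma cell line at 5000 cells per well; test concentration not given here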
COND: higher = more signal
Could you label it yes if measured z-score is -0.2 or higher, and no otherwise?

# COMPOUND, CLASSIFICATION
rows = [
    ("O=C1N(CCS(=O)(=O)c2ccccc2)c2ccccc2[C@@H]2OC(c3ccc(OCCCO)cc3)=N[C@]12Cc1ccccc1", "no"),
    ("[N-]=[N+]=Nc1ccccc1[C@H]1OC(c2ccc(OCCCO)cc2)=N[C@@]1(CCS(=O)(=O)c1ccccc1)C(=O)NCc1ccccc1", "yes"),
    ("COCCOC(=O)N1C(=O)[C@@]2(c3cc(C#CC4(O)CCCCCC4)ccc31)[C@H](C(=O)Nc1nc3ccccc3s1)[C@H]1C(=O)O[C@H](c3ccccc3)[C@H](c3ccccc3)N1[C@@H]2c1ccc(OCCO)cc1", "no"),
    ("COc1ccc([Si](C)(C)[C@@H]2[C@@H](CCn3cc([C@H](O)c4ccccc4)nn3)O[C@]3(C(=O)N(Cc4cccc(N5CCC5=O)c4)c4ccccc43)[C@H]2C)cc1", "yes"),
    ("CO[C@H]1O[C@H](CO)[C@@H](OC(=O)Nc2cccc(F)c2)[C@H](OC(=O)Nc2ccccc2)[C@H]1OC(=O)Nc1ccccc1", "no"),
]

// inclusive: z-score at least -0.2? input: C=CC[C@]1(C(N)=O)COC(c2ccc(OCCCO)cc2)=N1
yes

// inclusive: z-score at least -0.2? input: Cc1ccc(S[C@]2(C(=O)O)CC(=O)N(C(C)C)[C@@H]2c2ccc(CO)cc2)cc1
yes

// inclusive: z-score at least -0.2? input: COC(=O)[C@@]1(Cc2ccc(OC)cc2)[C@H]2c3cc(C(=O)N(C)C)n(Cc4ccc(C(F)(F)F)nc4)c3C[C@H]2CN1C(=O)c1ccccc1
yes

----------
Item-by-item account of composite z-score
System: Human papillomavirus type 1a E7 protein (residues 1-88)
TEST DETAILS: HPV1a E7 small-molecule binders, primary screen, biochemical, small-molecule microarray, residues 1-88, 635 nm (AID 1129)
COND: small-molecule microarray binding, fluorescence 635 nm; higher = more signal

# COMPOUND, composite z-score
measured = [
    ("C=CC[C@]1(C(=O)N2CCOCC2)N=C(c2ccc(OCCCO)cc2)O[C@H]1c1ccccc1N=[N+]=[N-]", 1.26),
]

Here is another compound to look at.
Answer briefly: composite z-score recorded on Human papillomavirus type 1a E7 protein (residues 1-88) for O=C1NC(=O)C2C1C=CC(C(O)C=Cc1ccc([N+](=O)[O-])cc1)N2Nc1ccc(Cl)cc1Cl (configuration not stated)
1.11

----------
Test system: wheat germ agglutinin (Triticum aestivum), Alexa647-labelled
TEST DETAILS: Alexa647-WGA lectin binding to printed small molecules – biochemical, small-molecule microarray, 635/667 nm fluorescence, artefact control for SMM control-protein annotation, profiling panel (AID 1140);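 further: score merges 667 nm feature emission with signal to noise over triplicate slides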
COND: WGA-A647 binding, 635 nm fluorescence, higher = more signal
Item-by-item account of composite z-score
Number only, no unit.

Answer briefly: composite z-score recorded on wheat germ agglutinin (Triticum aestivum), Alexa647-labelled for COc1ccc(C(O)C2C=CC3C(=O)N(C)C(=O)C3N2NC(=O)OC(C)(C)C)c2ccccc12 (centres undefined)
1.31

Answer briefly: composite z-score recorded on wheat germ agglutinin (Triticum aestivum), Alexa647-labelled for C=CCC(OC(C)=O)[C@@H]1[C@@H](N(Cc2cc3ccccc3o2)C(=O)Cc2ccc(OC)cc2)c2cc(OCCCO)ccc2N1C(=O)c1ccc2ccccc2c1 (some centres undefined)
0.757

Answer briefly: composite z-score recorded on wheat germ agglutinin (Triticum aestivum), Alexa647-labelled for CO[C@H]1O[C@H](CO)[C@@H](OC(=O)Nc2cccc(F)c2)[C@H](OC(=O)Nc2ccccc2)[C@H]1OC(=O)Nc1ccccc1
0.662

Answer briefly: composite z-score recorded on wheat germ agglutinin (Triticum aestivum), Alexa647-labelled for CC(C)N1CC=CC23O[C@@H]4C=CCOC(=O)[C@@H]4[C@H]2C(=O)N(CCCCCO)[C@@H]3C1=O (some centres undefined)
0.0322

----------
Tested on: Plasmodium falciparum Sir2 (PF13_0152, Sir2A)
TEST DETAILS: Plasmodium falciparum Sir2A binding compounds – biochemical, small-molecule microarray, 635 nm fluorescence, primary screen (AID 1098);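 further: score merges spot fluorescence intensity with its signal-to-noise ratio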
COND: fluorescence 635 nm, higher = more signal
OBSERVABLE: composite z-score
Number only, no unit.

# COMPOUND, SUBJECT OF TEST, composite z-score
records = [
    ("CC(=O)NCCCC[C@@H]1NC(=O)[C@H]2C[C@@H](C(=O)O)[C@@H](c3ccc(O)cc3)N2C1=O", "Plasmodium falciparum Sir2 (PF13_0152, Sir2A)", 1.43),
    ("O=C1NC(=O)C2C1C=CC(C(O)c1ccc(I)cc1)N2Nc1ccc(Cl)cc1Cl (configuration not stated)", "Plasmodium falciparum Sir2 (PF13_0152, Sir2A)", 1.03),
    ("C=C(CCCC)C(=O)CC[C@H](OC(=O)c1cccnc1)c1ccc(OCCO)cc1", "Plasmodium falciparum Sir2 (PF13_0152, Sir2A)", 0.142),
    ("COC(=O)[C@@]1(Cc2ccccc2)[C@H]2c3cc(C(=O)N(C)C)n(CCc4c[nH]c5ccc(O)cc45)c3C[C@H]2CN1C(=O)c1ccccc1", "Plasmodium falciparum Sir2 (PF13_0152, Sir2A)", 0.0625),
    ("CN1C(=O)C2C=CC(C(O)c3ccccc3)N(N3CCCCC3)C2C1=O (configuration not stated)", "Plasmodium falciparum Sir2 (PF13_0152, Sir2A)", 1.75),
]

Assign composite z-score to the following record: COCCOC(=O)N1C(=O)[C@@]2(c3cc(C#CC4(O)CCCCCC4)ccc31)[C@H](C(=O)Nc1nc3ccccc3s1)[C@H]1C(=O)O[C@H](c3ccccc3)[C@H](c3ccccc3)N1[C@@H]2c1ccccc1OCCO
1.07

Assign composite z-score to the following record: NC(=O)NCC#Cc1ccc2c(c1)[C@]1(C(=O)N2)[C@H](C(=O)O)[C@H]2C(=O)O[C@H](c3ccccc3)[C@H](c3ccccc3)N2[C@@H]1c1ccc(O)cc1
0.783
